test_details: Unbound brain to plasma ratio in Sprague-Dawley rat at 0.2 mg/kg, iv administered as cassette dose by LC-MS/MS analysis
Format: ADME, organism-based
conditions: brain and plasma, read-out: K(p,uu,brain)

[
  {
    "structure_smiles_string": "NC(=O)c1cc(-c2ccc(F)cc2)c2sc(COc3ccc(Cl)nc3)cc2n1",
    "Kp uu": "< 0.4"
  },
  {
    "structure_smiles_string": "NC(=O)c1cc(-c2ccc(F)cc2)n2nc(COc3ccnc(Br)c3)cc2n1",
    "Kp uu": "0.4 to 0.6"
  },
  {
    "structure_smiles_string": "COc1ccc(-c2cc(C(N)=O)nc3cc(COc4ccnc(C)c4)nn23)c(F)c1",
    "Kp uu": "0.4 to 0.6"
  },
  {
    "structure_smiles_string": "Cc1ccc(OCc2cc3nc(C(N)=O)cc(-c4ccc(F)cc4)c3s2)c(C)n1",
    "Kp uu": "< 0.4"
  },
  {
    "structure_smiles_string": "NC(=O)c1cc(-c2ccc(F)cc2)c2sc(COc3ccc(F)nc3)cc2n1",
    "Kp uu": "< 0.4"
  },
  {
    "structure_smiles_string": "NC(=O)c1cc(-c2ccc(F)cc2F)n2nc(COc3ccnc(C(F)(F)F)c3)cc2n1",
    "Kp uu": "0.4 to 0.6"
  }
]

Values compiled from ChEMBL document CHEMBL4308859.
